runDescription: Clearance in fasted Wistar rat at 75 mg/kg, po measured for 24 hrs by LCMS/MS analysis
Format: ADME, organism-based
condition: in vivo
propertyMeasured: CL/F (mL/min/kg)
Numbers only, in mL/min/kg.

Tell me the measured CL/F of `C=C(C)[C@@H]1CCC(C)=C[C@H]1c1c(O)cc(CCCCC)cc1O` , please.
123

---

runDescription: AUC (0 to infinity) in fasted Wistar rat at 75 mg/kg, po measured for 24 hrs by LCMS/MS analysis
Format: ADME, organism-based
Parameters: time 24 hrs, dose 75 mg/kg, route po
condition: in vivo
propertyMeasured: AUC(0-inf) (ng·h/mL)
Give bare numbers, in ng·h/mL.

Requested field: AUC(0-inf). Item: `C=C(C)[C@@H]1CCC(C)=C[C@H]1c1c(O)cc(CCCCC)cc1O`
10200

---

runDescription: Thermodynamic equilibrium solubility in water at 1 to 1200 ug incubated for 4 hrs by absorbance based assay
Type: physicochemical
condition: dose 1-1200 µg, read-out: Therm_solubility
Give solubility thermodynamic at 4 h for every item shown.

O=C(/C=C/C=C/c1ccc2c(c1)OCO2)N1CCCCC1 [PIPERINE] :: 40 µg/mL

For every item below, please supply its solubility thermodynamic at 4 h.
1. C=C(C)[C@@H]1CCC(C)=C[C@H]1c1c(O)cc(CCCCC)cc1OC(=O)CN1CCOCC1
2. C=C(C)[C@@H]1CCC(C)=C[C@H]1c1c(O)cc(CCCCC)cc1O [CANNABIDIOL]
3. C=C(C)[C@@H]1CCC(C)=C[C@H]1c1c(OC(=O)CN2CCOCC2)cc(CCCCC)cc1OC(=O)CN1CCOCC1

["40 µg/mL", "< 5 µg/mL", "120 µg/mL"]

---

runDescription: Chemical stability in SGF at 2 mg/ml incubated for 2 hrs by HPLC analysis
Assay type: physicochemical
condition: read-out: Stability
propertyMeasured: remaining at 2 h, 2 mg/ml

Name the recorded remaining at 2 h, 2 mg/ml for C=C(C)[C@@H]1CCC(C)=C[C@H]1c1c(O)cc(CCCCC)cc1O [CANNABIDIOL] .
≥ 74%

---

runDescription: Thermodynamic equilibrium solubility SGF at 1 to 1200 ug incubated for 4 hrs by absorbance based assay
Type: physicochemical
condition: dose 1-1200 µg, read-out: Therm_solubility
propertyMeasured: solubility thermodynamic at 4 h (µg/mL)
Give bare numbers, in µg/mL.

# count of solved cases: 2
C=C(C)[C@@H]1CCC(C)=C[C@H]1c1c(OC(=O)CN2CCOCC2)cc(CCCCC)cc1OC(=O)CN1CCOCC1 :: 4000
O=C(/C=C/C=C/c1ccc2c(c1)OCO2)N1CCCCC1 :: 40

For the compound `C=C(C)[C@@H]1CCC(C)=C[C@H]1c1c(O)cc(CCCCC)cc1OC(=O)CN1CCOCC1` , what solubility thermodynamic at 4 h is on record?
400

---

runDescription: AUC (0 to t) in fasted Swiss mouse at 75 mg/kg, po measured for 24 hrs by LCMS/MS analysis
Type: ADME, organism-based
Set-up: time 24 hrs, dose 75 mg/kg, route po
condition: in vivo
propertyMeasured: AUC(0-t) at 24 h (ng·h/mL)
Numbers only, in ng·h/mL.

Entry `C=C(C)[C@@H]1CCC(C)=C[C@H]1c1c(O)cc(CCCCC)cc1O` has what AUC(0-t) at 24 h?
4660
